RUN_DESCRIPTION: yeast display, Sf9 membrane polyspecificity reagent, FACS + sequencing; frameworks hold sequencing errors
EXPERIMENTAL_ENDPOINT: polyreactivity (PSR sort gate)

Illustrative cases are given below, each with its answer.
QVQLVESGGGLVQAGGSLRLSCAASGFIYSNNAMGWYRQAPGKERELVAAISASGSSTYYADSVKGRFTISRDNAKNTVYLQMNSLKPEDTAVYYCAAKSRTYQSYYYWGQGTQVTVSS ... high polyreactivity
QVQLQESGGGLVQAGGSLRMSCAASGNIFDADIMGWSRQAPGKERELVASNTDGRRTNYADSVKGRYTISRDSEKNTVYLQMNSLKAEDTAEYYCAAIAYPVVPTSFDYDCDYFHWGQGTQVTVSS ... high polyreactivity
QVQLVESGGGLVQAGGSLRLSCAASGLTFDKYVMGWYRQAPGKERELVAAITKGGGSTYYADSVKGRFTISRDNAKNTVYLQMNSLKPEDTAVYYCAVTLPLRYWGQGTQVTVSS ... high polyreactivity
QVQLVESGGCLVQAGGSLRLSCAASGRTFSLYAMGWYRQEPGQERELVASITDSTGGSTYYADSVKGRFTLSRDNAKNTVYLQMNSLKPEDTAVYYCAAQDYQYSDYQWWFGYWGLGTQVTVSS ... low polyreactivity
QVQLVESGGGLVQAGGSLRLSCAASGRIFRINAMGWYRQAPGKERELVASITSRAGSTYYADSVKGRFTISRDNAKNTVYLQMNSLKPEDTAVYYCAARSVYTYYRLDYWGQGTQVTVSS ... high polyreactivity
QVQLVESGGGLVQAGGSLRLSCAASGRTFFVYAMGWYRQAPGKERELVASITLSGGSTYYADSVKGRFTISRDNAKNTVYLQMHSLKPEDTAVYYCAKGWSRDNDREREDEYWGQGTQVTVSS ... low polyreactivity

Need polyreactivity (PSR sort gate) for each of these sequences.
1. QVQLVESGGGFVQAGGSLRLSCAASGSIFYYNAMGWYRQAPGKERELVAAIDWSGGITYYADSVKGRFTISRDNAKNTVYLQMNSLKPEDTAVYYCNVPMPPAKAEYGYWGQGTQVTVSS
2. QVQLVESGGGLVQAGGSLRLSCAASGFTFGEYAMGWYRQQPGKERELVAAISSSSGSTYYADSVKGRFTISRDNAKYTVYLQMNSLKPEDTAVYYCAATTSPRSARYYYWGQGTQVTVSS
3. QVQLVESGGGLVQAGGSLRLSCAASGSTLNDYTMGWYRQAPGKERELVAAIRVSGARTFYADSVKGRFTISRDNAKNTVYLQMNSLKPEDTAVYYCAARWYIANPLSPSDYWGQGTQVTVSS
4. QVQLVESVGGLVQAGGSLRLSCAASGRTFLRNAMGWYRQAPGKERELVASITSRGGRTYADSVKGRFTISRDNAKNTVYLQMNSLKPEDTAVYYCAARRQAGLRYDYWGQGTQVTVSS
5. QFHLVESGGGLVQAGGSLRLSCAATGSIFYTNAMGWYRQPAGTDRELVASIRSRDRTKYADSVKWRFSISRVNAKNTVYLQMNSLKPEDTAVYYCAADRYWYGVHASIYYYWGHGTQVTVSS

stdout:
high polyreactivity
high polyreactivity
low polyreactivity
high polyreactivity
high polyreactivity

====

RUN_DESCRIPTION: yeast display, Sf9 membrane polyspecificity reagent, FACS + sequencing; frameworks hold sequencing errors
EXPERIMENTAL_ENDPOINT: polyreactivity (PSR sort gate)

QVQLVESGGGLVQAGGSLRLSCAASGSTFWGYAMGWYRQAPGKERELVATINQSAGSTYYADSVKGRFTISRDNAKNTVYLQMNSLKPEDTAVYYCAAEARVQFSYDYWGQGTQVTVSS ... low polyreactivity
QVQLVESGGGLVQAGGSLRLSCAASGITFYEYAMGWYRQAHGKERELVAAISQSGGSTYYADSVKGRFTISRDNAKNTVYLQMNSLKPEDTAVYYCAADIKWSIRRAYDYWGQGTQVTVSS ... high polyreactivity
QVQLVESGGGLVQAGGSLRLSCAASGSIFGFNALGWYRQAPGKERELVASITWSGSSTYYADSVKGRFTISRDNAKNTVYLQMNSLKPEDTAVYYCAKEFVHTHFYLWHVFKYGYWGQGTQVTVSS ... low polyreactivity
QVQLVESGGGLVQAGGSLRLSCAASGSTFGYYAMGWYRQAPGKERELVAAITSGGSKKYADSVKGRFTISRDNAKNTVYLQMNSLKPEDTAVYYCATSRYFGYGYWGQGTQVTVSS ... low polyreactivity

// below: polyreactivity (PSR sort gate) requested for another sequence
stdin: Entry QVQLVESGGGLVQAGGSLRLSCAASGLTFRPNAMGWYRQAPGKERELVAAITWRGGRTYYADSVKGRFTISRDNAKNTVYLQMNSLKPEDTAVYYCAADSPYRGRPGPLNYGGDYWGQGTQVTVSS has what polyreactivity (PSR sort gate)?
stdout: high polyreactivity

====

RUN_DESCRIPTION: yeast display, Sf9 membrane polyspecificity reagent, FACS + sequencing; frameworks hold sequencing errors
EXPERIMENTAL_ENDPOINT: polyreactivity (PSR sort gate)

Illustrative cases are given below, each with its answer.
QVQLVESGGGLVQAGSSLRLSCAASGRTFGGYVMGWYRQAPGKERELVAAISSSAGSTYYADSVKGRFTISRDNAKNTVYLQMNSLKPEDTAVYYCAKRSYNPYDHYYRYQYGYWGQGTQVTVSS ... high polyreactivity
QVQLVESGGGLVQAGGSLRLSCAASGFTFSGYSMGWYRPAPGKERELVAAITKSGGSTYYADSVKGRFTISRDTAKNTVYLQMNSLKPEDTAVYYCNADVLYTTEGDYWGQGTQVTVSS ... high polyreactivity
QVQLVESGGGLVQAGGSLRLSCAASGIIFPHYAMGWYRQEPGKERELVAAITRSGGSTYYADSVKGRFTISRDNAKNTVYLQMNSLKPEDTAVYYCAAKRPVQSGGYNYWGQGTQVTVSS ... high polyreactivity
QVQLVESGGGLVQAGGSHRLSCAASGYTFPLYAMGWYRQAPGKERELVADINIGGASTYYADSVKGRFTISRDNAKNTVYLQMNSLKPEDTAVYYCAKEYYDGYFPTFDYDYWGQGTQVTVSS ... low polyreactivity
QVQLVESGGGLVQAGGSLRLSCDASGSTSYLYAMGCYRQAPGKARELVAAIPWRSVRTSYADSVKGRFTFSRDNAKNTVYLQMNSLKPEDTAVYYCNAVGYTRGRSTYDYWGQGTQVTVSS ... high polyreactivity
QVQLVESGGGLVQAGGSLRLSCAASGSIFAGYVMGWYRPAPGKERELVAATYYADSVKGRFTISRDNAKNTVYLQMNSLKPEDTAVYYCNAESLYTHYNDTSLTVEYGYWGQGTQVTVSS ... low polyreactivity
QVQLVESGGGLVQAGGSLRLSCAASGRIFRGYAMGSYRQETGKETELVAAISRSGGSTYYADSVKGRFTISRDNAKNTVYLQMNILKPEDTAVYYCNTKYVRYYRRYDSWGQGTQVTVSS ... high polyreactivity
QVQLVESGGGLVQAGGSLRLSCAASGSTFTSNAMGWYRQAPGKERELVASISGSGGRTDYADSVKGRFTISRDNAKNTVYLQMNSLKPEDTAVYYCNAESRNLYSTQFDYWGQGTQVTVSS ... low polyreactivity

Need polyreactivity (PSR sort gate) for each of these sequences.
1. QVQLVESGGGLVQAGGSLRLSCAASGRTITYYAMGWYRQAPGKERELVAAISSAGRTNYAVSVKGRFTISRDNAKNTVYLQMNCLKPEDTAVYYCAKRYGWASGYWNSNYGYLYDYWGQGTLVTVSS
2. QVQLVESGGGLVQAGGSLRLSCAASGITFYSYAMGWYRQAPGKERELVAGISGGGGTSYADSVKGRFTISRDNAKNTVYLQMNSLKPEDTAVYYCNVYAYTYYYWAFYTEDYWGQGTQVTVSS
3. QDQLVESGGGLVQAGGSLRLSCAASGRIFGWYAMGWYRQAPGKEREFVAAISRGGSTNYADSVKGRFTISRDNAKNTVYLQMNSLKAEDTAVYYCNARKRGSRLRREFDYWGQGTQVTVST

stdout:
1. high polyreactivity
2. high polyreactivity
3. high polyreactivity

====

RUN_DESCRIPTION: yeast display, Sf9 membrane polyspecificity reagent, FACS + sequencing; frameworks hold sequencing errors
EXPERIMENTAL_ENDPOINT: polyreactivity (PSR sort gate)

QVQLVESGGGLVQAGGSLRLSCAASGSTFVGYAMGWYRQAPGKERELVAAISGSGTSTYYADSVKGRFTISRDNAKNTVYLQMNSLKPEDTAVYYCNADPIFVYSSYNYWGQGTQVTVSS ... low polyreactivity
QVQLVESGGGLVQAGGSLRLSCAASGFTFAFNDMGWYRQAPGKERELVAAITWSGGSTYYADSVKGRFTISRDNAKNTVYLQMNSLKPEDTAVYYCNADLLGYVYLNLPVGSWGQGTQVTVSS ... low polyreactivity

====

RUN_DESCRIPTION: yeast display, Sf9 membrane polyspecificity reagent, FACS + sequencing; frameworks hold sequencing errors
EXPERIMENTAL_ENDPOINT: polyreactivity (PSR sort gate)

QVQLVESGGGLVQAGGRLRLSCAASGLIFSVYVMGGYRQAPGKERELVAGITTGGSTKYADSVKGRFTISRDNAKNTVYLEMNSLKPEDTAVYYCAVGKYNYRGSWDYYWGQGTQVTVSS ... high polyreactivity
QVQLVESGGGLVQAGGSLRLSCAASGFIFWYYAMGWYRQAPGKERELVAAITSGGSTNYADSVKGRFTISRDNAKNTVYLQMNSLKPEDTAVYYCARPYVTYEYDYWGQGTQVTVSS ... low polyreactivity
QVQLVESGGGLVQAGGSLRLSCAASGYTFSDNAMGWYRQAPGKERELVAAITSGVSTYYADSVKGRFTISRDNAKNTVYLQMNSLKPEDTAVYYCAKDVAVYADLYQGAPYGYWGQGTQVTVSS ... low polyreactivity
QVQLVESGGGLVQAGGSLRLSCAASGSTVKYAMGWYRQAPGKDRELVASIRRSGGSTYYADSVKGRFTISRDNAMNTVYLQMNRLKPEDTAVYYCNARFPYNWRYDYWGQGTQVTVSS ... high polyreactivity

// below: polyreactivity (PSR sort gate) requested for another sequence
stdin: Entry QVQIVESGGGLDQAGGSLRLSCAASGRTFVSNDMGRYRQAPGKERELVATISSGASTYYADSVKGRFTISRDNAKTTVYLQMISLKPEDNAVYYCAAEDLVFGGGYDYWGQGTQVNVSS has what polyreactivity (PSR sort gate)?
stdout: low polyreactivity
